Hey, just so you know, these numbers are from the supplement of paper PMC10065799.

# tested-system: EPHB2 (UniProt P29323)
# Sequence (P29323 whole entry, looked up): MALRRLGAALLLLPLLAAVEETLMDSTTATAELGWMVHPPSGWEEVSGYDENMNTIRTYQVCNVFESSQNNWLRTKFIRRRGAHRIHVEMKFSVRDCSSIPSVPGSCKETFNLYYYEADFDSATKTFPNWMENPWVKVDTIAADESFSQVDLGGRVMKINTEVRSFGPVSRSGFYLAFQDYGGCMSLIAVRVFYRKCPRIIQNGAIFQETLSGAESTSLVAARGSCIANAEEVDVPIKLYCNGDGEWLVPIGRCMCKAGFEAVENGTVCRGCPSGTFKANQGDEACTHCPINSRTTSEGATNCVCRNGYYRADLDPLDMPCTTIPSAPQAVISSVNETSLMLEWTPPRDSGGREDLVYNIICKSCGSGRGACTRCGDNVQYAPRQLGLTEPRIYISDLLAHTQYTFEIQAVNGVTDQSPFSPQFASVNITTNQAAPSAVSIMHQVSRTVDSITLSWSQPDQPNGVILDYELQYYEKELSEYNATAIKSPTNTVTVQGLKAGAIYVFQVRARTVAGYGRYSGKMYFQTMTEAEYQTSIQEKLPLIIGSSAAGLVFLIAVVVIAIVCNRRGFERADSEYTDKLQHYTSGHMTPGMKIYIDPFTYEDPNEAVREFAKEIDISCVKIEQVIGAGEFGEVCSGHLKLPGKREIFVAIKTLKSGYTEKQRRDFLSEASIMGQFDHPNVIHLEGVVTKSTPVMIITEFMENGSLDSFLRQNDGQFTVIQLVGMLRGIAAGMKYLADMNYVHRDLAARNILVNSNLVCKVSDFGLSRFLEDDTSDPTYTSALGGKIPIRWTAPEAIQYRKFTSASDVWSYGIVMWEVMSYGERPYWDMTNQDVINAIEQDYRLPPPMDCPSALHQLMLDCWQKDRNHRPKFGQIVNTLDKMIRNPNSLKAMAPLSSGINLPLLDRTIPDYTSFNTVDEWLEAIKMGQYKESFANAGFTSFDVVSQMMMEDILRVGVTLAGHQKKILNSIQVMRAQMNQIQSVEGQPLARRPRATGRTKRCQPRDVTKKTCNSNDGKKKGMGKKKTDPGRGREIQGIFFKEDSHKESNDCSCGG
# experiment-description: phosphorylation enrichment, bacterial display (enrichment ratio); higher = better substrate or ligand; peptides without Tyr show the background
Criterion: phosphorylation enrichment meeting or surpassing 0.6. Met: T. Not met: F.

Take a look at these entries with their results.
> print(dat)
                       seq.string  qualitative.label
1           PYRSIYFSSPK [MPG_Y75]                  F
2  AAGGRYDGLLG [HARS2_Y364_V368L]                  F
3        FKDYFYCWNTF [AICDA_Y146]                  T

Exercise: Given the entry FGVVGYLAIMF [RNF175_Y155] , answer whether its phosphorylation enrichment meets or surpasses 0.6.
Key: F

Exercise: Entry KFEDVYVRICL [B3GALNT1_Y269_G271R] : is its phosphorylation enrichment no less than 0.6?
Key: F

Exercise: Dear colleague, could you confirm whether LEKISYVFMKR [SSX7_Y48_YF] has phosphorylation enrichment at or above 0.6?
Key: T

Exercise: Is it the case that IKRIAYEFVEM [ADA_Y84] has phosphorylation enrichment reaching or exceeding 0.6?
Key: F

Exercise: Has ATRDVYNPFET [SCAMP3_Y41_L38R] a recorded phosphorylation enrichment greater than or equal to 0.6?
Key: F

Exercise: Could you please find out whether TLARLYHPDST [LRIG1_Y1029] has phosphorylation enrichment that meets 0.6 or exceeds it?
Key: F

###

# tested-system: Grb2 SH2 (UniProt P62993)
# Sequence (P62993 whole entry, looked up): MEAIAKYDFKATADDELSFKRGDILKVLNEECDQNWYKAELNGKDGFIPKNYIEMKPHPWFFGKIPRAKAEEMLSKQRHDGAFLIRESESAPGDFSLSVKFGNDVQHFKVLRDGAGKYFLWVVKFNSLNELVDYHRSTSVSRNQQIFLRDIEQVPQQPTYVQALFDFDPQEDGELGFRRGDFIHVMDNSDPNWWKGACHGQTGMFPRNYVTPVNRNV
# experiment-description: SH2 binding enrichment of the phosphorylated peptide, bacterial display (enrichment ratio); higher = better substrate or ligand; peptides without Tyr show the background
Where SH2 binding enrichment equals or exceeds 0.8, the correct label is True; where it does not, the label is False.

Sample answers from the record:
> print(dat)
                            seq.string  qualitative.label
1        ASIVDYNIIGW [MYH7_Y588_G584S]              False
2       KRELRYMHSRV [ABCD1_Y281_G277R]               True
3           TLKDVYDDGKY [RPS6KA3_Y483]               True
4      NRVEIYDKTVE [CYFIP1_Y108_E109D]               True
5  VFSATYHPDHW [EFCAB12_Y544_P541S_YF]               True

Exercise: Can IQTDGYRAPEA [UHMK1_Y197] be said to have SH2 binding enrichment at or above 0.8?
Key: False

Exercise: Threshold query (SH2 binding enrichment >= 0.8) on SVTCTYSPALD [TP53_Y126_N131D]
Key: True

Exercise: Decide: SH2 binding enrichment of IALSKYGRVKR [FGF6_Y186] >= 0.8?
Key: False

Exercise: Confirm if SH2 binding enrichment reported for the sequence LAIERYVVVSK [RHO_Y136_C140S] is 0.8 or above.
Key: False

Exercise: API: above_or_equal(metric=SH2 binding enrichment, cutoff=0.8) for item ILTYKYLQKPM [KIT_Y547]
Key: False

Exercise: Say whether SDYSSYARTSI [TERT_Y949] shows SH2 binding enrichment of 0.8 or more.
Key: False

###

# tested-system: SHP2-C SH2
# experiment-description: SH2 binding enrichment of the phosphorylated peptide, bacterial display (enrichment ratio); higher = better substrate or ligand; peptides without Tyr show the background
readout-kind: SH2 binding enrichment
Numbers only.

Worked examples, 10 sequences total:
> print(dat)
                            seq.string            readout.kind  measured.result
 1            FGAHNYHPLPV [OAT_Y55_YF]  SH2 binding enrichment            0.493
 2            TFEYRYLEDRD [CNOT3_Y746]  SH2 binding enrichment             0.81
 3         FGMQLYQNFMH [GRB14_Y347_YF]  SH2 binding enrichment             1.34
 4       KLPDAYERFIL [G6PD_Y437_L440F]  SH2 binding enrichment            0.801
 5           PDGVEYLKNDP [GRIN3A_Y831]  SH2 binding enrichment            0.479
 6      VSTKVYKRFPS [BEST1_Y148_A146K]  SH2 binding enrichment            0.848
 7  AVAFLYFKSIG [ADGRL4_Y301_V300L_YF]  SH2 binding enrichment             1.07
 8     PQAVTYAEVKH [LILRB4_Y360_K362E]  SH2 binding enrichment             32.9
 9     RKQQLYIAMEE [CCDC39_Y593_T594I]  SH2 binding enrichment            0.909
10        REAMEYLESKQ [BTK_Y511_C506R]  SH2 binding enrichment            0.678

Provide each entry's SH2 binding enrichment from the list below.
1. RIGRKYKRVRF [F8_Y442_K444R]
2. LARNMYDKEFF [MET_Y1230_D1228N_YF]

Key:
1. 0.533
2. 0.739

Okay, here is my list. What is SH2 binding enrichment for each of these?
1. NTFEKYLGEEF [TF_Y669_YF]
2. REGAKYVSHCA [ASS1_Y113_G117C]

Key:
[0.656, 0.723]

###

# tested-system: Jak2 (UniProt O60674)
# Sequence (O60674 whole entry, looked up): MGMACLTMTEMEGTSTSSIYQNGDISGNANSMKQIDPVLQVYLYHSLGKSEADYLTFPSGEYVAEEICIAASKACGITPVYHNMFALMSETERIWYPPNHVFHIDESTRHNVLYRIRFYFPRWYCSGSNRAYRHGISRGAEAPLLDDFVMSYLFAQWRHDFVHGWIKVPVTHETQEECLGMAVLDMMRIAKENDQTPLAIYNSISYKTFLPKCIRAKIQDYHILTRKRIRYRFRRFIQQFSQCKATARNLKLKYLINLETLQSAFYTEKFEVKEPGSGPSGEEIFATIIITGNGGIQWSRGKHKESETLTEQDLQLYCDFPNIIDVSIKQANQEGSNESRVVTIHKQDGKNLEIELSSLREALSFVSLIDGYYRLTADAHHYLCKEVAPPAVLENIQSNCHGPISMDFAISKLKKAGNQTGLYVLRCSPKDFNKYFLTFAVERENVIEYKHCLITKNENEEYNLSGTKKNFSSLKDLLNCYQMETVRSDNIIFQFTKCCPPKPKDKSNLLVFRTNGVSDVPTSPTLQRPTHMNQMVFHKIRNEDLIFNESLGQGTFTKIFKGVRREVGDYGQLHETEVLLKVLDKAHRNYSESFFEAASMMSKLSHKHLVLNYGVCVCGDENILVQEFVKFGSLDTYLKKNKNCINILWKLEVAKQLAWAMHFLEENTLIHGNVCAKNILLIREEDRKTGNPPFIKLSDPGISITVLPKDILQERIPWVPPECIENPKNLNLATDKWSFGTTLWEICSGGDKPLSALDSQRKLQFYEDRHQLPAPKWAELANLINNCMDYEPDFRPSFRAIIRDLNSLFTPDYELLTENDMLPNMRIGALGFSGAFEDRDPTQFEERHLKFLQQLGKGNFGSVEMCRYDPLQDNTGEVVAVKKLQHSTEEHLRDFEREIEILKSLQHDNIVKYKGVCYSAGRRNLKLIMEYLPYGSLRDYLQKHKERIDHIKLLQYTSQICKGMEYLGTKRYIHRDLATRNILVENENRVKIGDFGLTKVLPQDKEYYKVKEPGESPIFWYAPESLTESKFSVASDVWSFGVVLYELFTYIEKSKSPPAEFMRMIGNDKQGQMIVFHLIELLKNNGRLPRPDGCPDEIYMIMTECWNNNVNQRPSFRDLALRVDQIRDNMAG
# experiment-description: phosphorylation enrichment, bacterial display (enrichment ratio); higher = better substrate or ligand; peptides without Tyr show the background
Just so you know, the groups by phosphorylation enrichment go like this: lower level = under 0.7, middle level = from 0.7 up to 1, upper level = 1 and over

> print(dat)
                          seq.string  qualitative.label
1           KIRDWYQRQRP [KRT14_Y151]        lower level
2           SDQRRYSLIDR [CLIP2_Y972]        lower level
3  QEALEYFMKQV [PIK3CA_Y1038_M1043V]       middle level
4   VKANTYENFWP [GATM_Y100_K102N_YF]       middle level
5   RKVAQYMLENE [SLC16A6_Y224_E221V]        upper level
6       ATDLAYYLVCK [ASL_Y375_R379C]        upper level

Exercise: # bin lookup: classify LARDIYKNDFF [ROS1_Y2110_YF] by its phosphorylation enrichment
Key: upper level

Exercise: Please let me know in which category the item LGSVVYAHSKE [KCNQ2_Y226] belongs.
Key: lower level

Exercise: Which category fits this record: SGFESYGSSSY [RPA2_Y9]
Key: middle level

Exercise: Tag the class for SVNIRYLLFPS [SERAC1_Y548]
Key: upper level

Exercise: In plain terms, what class is HQKKPYCHTHN [NRAP_Y53_A56T] ?
Key: upper level

###

Consider the following sequences; for each one, report its phosphorylation enrichment.
# Test system: AncSZ
# experiment-description: phosphorylation enrichment, bacterial display (enrichment ratio); higher = better substrate or ligand; peptides without Tyr show the background

> print(dat)
                          seq.string  tested.system                readout.kind  measured.result
1     YRAVKYLQMVG [AVPR2_Y117_C112Y]          AncSZ  phosphorylation enrichment             0.95
2    GTYVIYVRFSG [FLNB_Y1687_G1691S]          AncSZ  phosphorylation enrichment             1.26
3     DASAVYLRDFQ [PLCG2_Y242_H244R]          AncSZ  phosphorylation enrichment            0.769
4         NVGGKYSFLKV [GRM3_Y478_YF]          AncSZ  phosphorylation enrichment            0.608
5           IQTDGYRAPEA [UHMK1_Y197]          AncSZ  phosphorylation enrichment            0.601
6  QEALEYFMKQV [PIK3CA_Y1038_M1043V]          AncSZ  phosphorylation enrichment             1.18

Please turn your attention to the following entry.
Exercise: Using the record for RGGDSYGGPPR [RBMX_Y190_R187G] , report its phosphorylation enrichment.
Key: 0.498

###

# tested-system: Fyn (UniProt P06241)
# Sequence (P06241 whole entry, looked up): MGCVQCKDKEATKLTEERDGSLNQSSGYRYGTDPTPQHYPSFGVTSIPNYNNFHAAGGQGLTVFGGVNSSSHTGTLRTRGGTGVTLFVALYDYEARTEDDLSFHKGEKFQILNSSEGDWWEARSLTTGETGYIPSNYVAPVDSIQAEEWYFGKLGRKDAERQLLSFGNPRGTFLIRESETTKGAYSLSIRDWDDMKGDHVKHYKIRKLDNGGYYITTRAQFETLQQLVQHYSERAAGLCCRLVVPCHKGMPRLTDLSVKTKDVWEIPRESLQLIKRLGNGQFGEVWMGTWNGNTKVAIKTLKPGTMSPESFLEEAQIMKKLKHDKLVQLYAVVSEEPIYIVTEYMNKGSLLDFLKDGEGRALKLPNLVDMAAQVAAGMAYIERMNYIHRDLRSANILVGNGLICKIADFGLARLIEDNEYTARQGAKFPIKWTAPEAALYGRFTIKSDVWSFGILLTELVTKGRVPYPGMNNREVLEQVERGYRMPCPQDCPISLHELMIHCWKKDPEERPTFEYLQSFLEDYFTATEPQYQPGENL
# experiment-description: phosphorylation enrichment, bacterial display (enrichment ratio); higher = better substrate or ligand; peptides without Tyr show the background
Rule: phosphorylation enrichment of 0.5 or more gives rule met; anything lower gives rule not met.

Example results:
> print(dat)
                         seq.string         tested.system  qualitative.label
1    ATGLIYIGSHD [AASDH_Y870_T865A]  Fyn (UniProt P06241)       rule not met
2      NETNKYQISVN [FGB_Y368_A365T]  Fyn (UniProt P06241)       rule not met
3  DFCDLYGGEKF [PTPN11_Y66_Y63C_YF]  Fyn (UniProt P06241)           rule met
4   LAETSYVTVLE [MAGEA1_Y276_K278T]  Fyn (UniProt P06241)           rule met
5    LAVGDYMRRQK [ATM_Y1915_V1913G]  Fyn (UniProt P06241)           rule met

Exercise: API: above_or_equal(metric=phosphorylation enrichment, cutoff=0.5) for item FGMQLYQNFMH [GRB14_Y347_YF]
Key: rule met

Exercise: Assess whether reported phosphorylation enrichment for PAVGIYNDNIN [CDCP1_Y707] sits at 0.5 or higher.
Key: rule met

Exercise: Exam item: decide whether the reported phosphorylation enrichment for FSGQVYRQRRK [TH_Y230_D227G] is at least 0.5.
Key: rule met

Exercise: In plain terms: is recorded phosphorylation enrichment at least 0.5 for GKGGSYSKAEW [HLA-E_Y341] ?
Key: rule not met

Exercise: Test whether the sequence SVVVPYEPPED [TP53_Y220_V225D] records phosphorylation enrichment of 0.5 or higher.
Key: rule not met

Exercise: Say whether CQLENYCNGGG [INS_Y108_Y103C] shows phosphorylation enrichment of 0.5 or more.
Key: rule met

Exercise: Has FGCTFYNQAIM [MCCC2_Y196_R193C] a recorded phosphorylation enrichment greater than or equal to 0.5?
Key: rule not met

Exercise: Dear colleague, could you confirm whether LASLIYNFVLF [AQP6_Y231] has phosphorylation enrichment at or above 0.5?
Key: rule met
